The reported measurements were obtained from the supplement of paper PMC6555819.

Test system: THRa homodimer (NR concentration 90 nM)
ASSAY_METHOD_TEXT: PBM binding z-score (relative to random genomic background probes); higher = stronger binding; sequences stand for … in GC…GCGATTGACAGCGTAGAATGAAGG
Property: PBM binding z-score; scope: individual sequences

SEQUENCE_DATA | PBM binding z-score
GTTAGTTGGTCAGTAAAAGGTCACACACCGGTCG | 2.18
TCTCGGAGGACACGATAGGTCAGAGCTCGACATC | 0.393
TCTGCTAGGTCAACGATGGTCAGCTGATCTGCTA | 0.473
AGTCAAAGTTCAGGACGAGGTAACGGAAAGCACG | 1.74
CCTACTGGACCACGAAAGGTCATTGATTCAGTGA | 1.6
TCTTGTAGATCAACGGGAGGTTAAGAAAGATCGA | -0.165
CCTAGCAGGCCAGGGTGACTCAAGCATTTCGCTT | -0.395
CCAGTCAGGTGAGAAGGTAACTCAGCCTCGATTA | 0.512
CTCGAAAGGTCGGTTGACGTGAGTATACGGATAA | -0.605
ACTCGGAGGACAAAGTTCAGAGCTACGCCAGTGA | -0.296
TCATATAGGTAAACACGTGAAAGTCCGTAAGTTA | 0.238
GCATATAGGTAATAAAAGGTGAAAGTCCGATTGT | -0.141
ATCTCTAGGAAAAGTTCAGTGAAAGATCGATAGA | -0.316
AGTCAAAGTTCACTACGTAACGTAAGATTCAGCT | -0.394
GCTTGTAGATCAAGGTAAAGAAAGACTAAGCTAA | -0.807
TCGACTAGGTTAGTCGGGGCATTCAGCCAACATA | -0.279
GCAGACAGGTGAAACGCAGGTAACCCAGGGTGGC | -0.636
TCTTGTAGGTCAACAGGAGGTTAAGAAAGATCGA | 0.603
GTACCAAGGTGAATAGGTCGTTCATGAGTAGGCG | 0.565
ACTCAGAGGACAAAGGTCAGAGCTACGCCAGTGA | 0.705
ATCTCTAGGTAAGACTCAGTTCAGTGAAGAACGC | 0.796
CTAGAAAGGTCGGTTGAGGTGAGTATACGGATAA | 1.71
ATATGTAGGTTAACGGTCATTCAGGTTGGTTCGC | 0.747
ATATGTAGGTTAGCTGGGGACATTCAGACTAGGC | 2.11
CCTTACGGGTGACGAGGTTATAGCACGACGAGCG | 0.317
AGAATGAGGTTACCAAAGATCATGGAAACGCTTG | 0.729
